assay: Apparent permeability from apical to basolateral side of dog RRCK cells by transwell assay; assay type: ADME, cell-based, Canis lupus familiaris, MDCKII-LE; conditions: MDCK
# cutoff 20 ×10⁻⁶ cm/s applies to Papp A→B; >= gives fulfilled, < gives not fulfilled

{"columns": ["smiles record", "cat"],
 "data": [
  ["NC(=O)[C@@H](CCC(F)(F)F)N(C[C@@H]1CCCO1)S(=O)(=O)c1ccc(Cl)cc1", "fulfilled"]
]}

# check: Papp A→B of `NC(=O)[C@@H](CCC(F)(F)F)N(C[C@H]1CCCO1)S(=O)(=O)c1ccc(Cl)cc1` is greater than or equal to 20 ×10⁻⁶ cm/s
not fulfilled

====

experiment: Apparent permeability from apical to basolateral side of dog RRCK cells by transwell assay; format: ADME, cell-based, Canis lupus familiaris, MDCKII-LE; details: MDCK
# cutoff 20 ×10⁻⁶ cm/s applies to Papp A→B; >= gives met, < gives not met

// known answers, use as guide
{"columns": ["smiles record", "cat"],
 "data": [
  ["NC(=O)[C@@H](CCC(F)(F)F)N(C[C@@H]1CCCCO1)S(=O)(=O)c1ccc(Cl)cc1", "not met"],
  ["CC1(C)C[C@H](CN([C@H](CCC(F)(F)F)C(N)=O)S(=O)(=O)c2ccc(Cl)cc2)O1", "not met"],
  ["CC1(C)CO[C@H]1CN([C@H](CCC(F)(F)F)C(N)=O)S(=O)(=O)c1ccc(Cl)cc1", "met"],
  ["CC1(C)C[C@@H](CN([C@H](CCC(F)(F)F)C(N)=O)S(=O)(=O)c2ccc(Cl)cc2)O1", "not met"],
  ["C[C@@H]1C[C@@H](CN([C@H](CCC(F)(F)F)C(N)=O)S(=O)(=O)c2ccc(Cl)cc2)O1", "met"],
  ["NC(=O)[C@@H](CCC(F)(F)F)N(CC1CCOCC1)S(=O)(=O)c1ccc(Cl)cc1", "met"],
  ["NC(=O)[C@@H](CCC(F)(F)F)N(C[C@H]1COCCO1)S(=O)(=O)c1ccc(Cl)cc1", "met"],
  ["NC(=O)[C@@H](CCC(F)(F)F)N(CC1CCC1)S(=O)(=O)c1ccc(Cl)cc1", "not met"]
]}

# check: Papp A→B of `NC(=O)[C@@H](CCC(F)(F)F)N(C[C@H]1CCCOC1)S(=O)(=O)c1ccc(Cl)cc1` is greater than or equal to 20 ×10⁻⁶ cm/s
not met

====

test: Oral bioavailability in rat; type: ADME, organism-based; conditions: in vivo
readout: bioavailability

{"columns": ["smiles record", "result"],
 "data": [
  ["CC1(C)C[C@@H](CN([C@H](CCC(F)(F)F)C(N)=O)S(=O)(=O)c2ccc(Cl)cc2)O1", "< 5%"],
  ["NC(=O)[C@@H](CCC(F)(F)F)N(C[C@@H]1CCO1)S(=O)(=O)c1ccc(Cl)cc1", "< 5%"]
]}

Now let's try a different one.
Sample `NC(=O)[C@@H](CCC(F)(F)F)N(CC1COC1)S(=O)(=O)c1ccc(Cl)cc1` — what was its bioavailability?
< 5%

====

assay: Drug uptake in wild-type mouse 129/sve cerebrospinal fluid at 100 mg/kg, sc administered as a single dose measured 1 hr post-dose by LC-MS analysis; type: ADME, organism-based; set-up: dose 100 mg/kg, route subcutaneous; conditions: read-out: Drug uptake
readout: concentration at 1 h (nM)
Return type: number; implicit unit nM.

Sample `NC(=O)[C@@H](CCC(F)(F)F)N(C[C@@H]1CCO1)S(=O)(=O)c1ccc(Cl)cc1` — what was its concentration at 1 h?
447
